target: UniProt:P09382
Sequence (P09382 whole entry): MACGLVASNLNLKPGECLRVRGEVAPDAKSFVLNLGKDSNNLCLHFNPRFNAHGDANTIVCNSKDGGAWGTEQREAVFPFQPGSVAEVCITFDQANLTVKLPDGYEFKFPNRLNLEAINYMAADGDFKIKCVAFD
# thresholds on IC50 define classes: lower: < 2 µM; middle: ≥ 2 µM and < 10 µM; upper: ≥ 10 µM

Cc1ccccc1C(O)C(S[C@@H]1O[C@H](CO)[C@H](O)[C@H](n2cc(-c3cc(F)c(F)c(F)c3)nn2)[C@H]1O)c1ccccc1C(F)(F)F (some centres unmarked) [Example 2.62.112.]; upper
CN1CCC(O)([C@H](S[C@@H]2O[C@H](CO)[C@H](O)[C@H](n3cc(-c4cc(F)c(F)c(F)c4)nn3)[C@H]2O)c2ncccc2C(F)(F)F)CC1 [Example 2.40.125R.]; lower
CO[C@@H]1[C@@H](n2cc(-c3ccc(F)c(F)c3)nn2)[C@@H](O)[C@@H](CO)O[C@H]1SC(c1ncccc1C)C1(O)CCC(F)(F)CC1 (some centres unmarked) [Example 16.44.126.I.]; lower
CC(C)(O)C(S[C@@H]1O[C@H](CO)[C@H](O)[C@H](n2cc(-c3cc(F)c(F)c(F)c3)nn2)[C@H]1O)c1ccccc1CCO (some centres unmarked) [Example 2.31.108.]; upper
Cc1ccccc1[C@@H](S[C@@H]1O[C@H](CO)[C@H](O)[C@H](n2cc(-c3cc(F)c(F)c(F)c3)nn2)[C@H]1O)C1(O)CCCC1 [Example 2.38.102R.]; lower

Task item: Category of Cc1nc([C@H](S[C@@H]2O[C@H](CO)[C@H](O)[C@H](n3cc(-c4cc(F)c(F)c(F)c4)nn3)[C@H]2O)C(C)(C)O)c(C)o1 [Example 2.31.122S.] , please.
Reply: upper

Task item: Consider CCC(O)C(S[C@@H]1O[C@H](CO)[C@H](O)[C@H](n2cc(-c3cc(F)c(F)c(F)c3)nn2)[C@H]1O)c1ccccc1C(F)(F)F (some centres unmarked) [Example 2.60.112.] . To which IC50 class does it belong?
Reply: middle

Task item: Could you place OC[C@H]1O[C@@H](S[C@@H](c2ncccc2C(F)(F)F)C2(O)CCCCC2)[C@H](O)[C@@H](n2cc(-c3cc(F)c(F)c(F)c3)nn2)[C@H]1O [Example 2.39.125S.] in its proper category? Many thanks.
Reply: upper

Task item: Quick check: band for CO[C@@H]1[C@@H](n2cc(-c3cc(F)c(F)c(F)c3)nn2)[C@@H](O)[C@@H](CO)O[C@H]1S[C@H](c1ccccc1C)[C@]1(O)CCOC(C)(C)C1 [Example 2.43.102RS.I.]
Reply: lower

Task item: Where would Cc1ccccc1C(S[C@@H]1O[C@H](CO)[C@H](O)[C@H](n2cc(-c3cc(F)c(F)c(F)c3)nn2)[C@H]1O)C(C)(C)O (some centres unmarked) [Example 2.31.102.] land among the classes by reported IC50?
Reply: middle

Task item: Please report the category associated with CO[C@@H]1[C@@H](n2cc(-c3cc(F)c(F)c(F)c3)nn2)[C@@H](O)[C@@H](CO)O[C@H]1S[C@H](c1nocc1C)C1(O)CCCCC1 [Example 2.39.120R.I.] , nothing else.
Reply: lower

* * *

target: human Gal-3 (hGal-3) (Homo sapiens (Human), UniProt P17931); experiment: competitive binding assay: biotinylated hGal-3 binding to microplate-adsorbed asialofetuin (ASF); settings: Table 10; 2-OMe-Gal inhibitors; read-out: IC50 (Gal-3 inhibition)
Sequence (P17931 whole entry): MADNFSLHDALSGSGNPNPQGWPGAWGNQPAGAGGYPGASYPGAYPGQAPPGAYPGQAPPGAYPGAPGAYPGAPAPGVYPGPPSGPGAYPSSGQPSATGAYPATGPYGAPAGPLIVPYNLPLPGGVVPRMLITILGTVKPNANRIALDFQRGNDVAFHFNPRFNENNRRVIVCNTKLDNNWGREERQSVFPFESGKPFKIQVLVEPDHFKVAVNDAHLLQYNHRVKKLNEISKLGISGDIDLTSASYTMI
assayMetric: IC50 (nM)
Response body: numeric value in nM, unit text excluded.

The examples below pair each entry with its known result.
CO[C@@H]1[C@@H](n2cc(-c3cc(F)c(F)c(F)c3)nn2)[C@@H](O)[C@@H](CO)O[C@H]1S[C@H](c1nccnc1Cl)C1(O)CCC(F)(F)CC1 [Example 2.44.133R.I.]; 40
CO[C@@H]1[C@@H](n2cc(-c3cc(F)c(F)c(F)c3)nn2)[C@@H](O)[C@@H](CO)O[C@H]1SC(c1c(C)cnn1C)C1(O)CCC(F)(F)CC1 (some centres unmarked); 420
CCn1nnc(C)c1[C@H](S[C@@H]1O[C@H](CO)[C@H](O)[C@H](n2cc(-c3cc(F)c(F)c(F)c3)nn2)[C@H]1OC)C1(O)CCC(F)(F)CC1 [Example 2.44.138S.I.]; 13200

Task item: # input molecule: CO[C@@H]1[C@@H](n2cc(-c3cc(F)c(F)c(F)c3)nn2)[C@@H](O)[C@@H](CO)O[C@H]1S[C@@H](c1ccccc1C(C)C)C1(O)CCC(F)(F)CC1 [Example 2.44.105S.I.] ; wanted: its IC50
Reply: 70500

Task item: # lookup: IC50 of CO[C@@H]1[C@@H](n2cc(-c3cc(F)c(F)c(F)c3)nn2)[C@@H](O)[C@@H](CO)O[C@H]1S[C@H](c1ccccc1C1CC1)C1(O)CCC(F)(F)CC1 [Example 2.44.106R.I.]
Reply: 180
